- System: Neutrophil
- assay: Inhibition of 3 nM PMA-stimulated superoxide anion generation in rat neutrophils
- Type: functional, cell-based

{"test-smiles": "COc1ccc(OC)c(C(=O)/C=C/c2ccc(Br)o2)c1", "target-entity": "Neutrophil", "unit-symbol": "%", "Inhibition": -2.2}
{"test-smiles": "COc1ccc(OC)c(C(=O)/C=C/c2ccco2)c1", "target-entity": "Neutrophil", "unit-symbol": "%", "Inhibition": 49.1}
{"test-smiles": "COc1ccc(OC)c(C(=O)/C=C/c2ccc(C)s2)c1", "target-entity": "Neutrophil", "unit-symbol": "%", "Inhibition": -11.9}
{"test-smiles": "COc1ccc(OC)c(C(=O)/C=C/c2ccc(OC/C=C/c3ccccc3)cc2)c1", "target-entity": "Neutrophil", "unit-symbol": "%", "Inhibition": 4.1}
{"test-smiles": "COc1ccc(OC)c(C(=O)/C=C/c2cccs2)c1", "target-entity": "Neutrophil", "unit-symbol": "%", "Inhibition": 7.9}
{"test-smiles": "COc1ccc(OC)c(C(=O)/C=C/c2ccc(C)o2)c1", "target-entity": "Neutrophil", "unit-symbol": "%", "Inhibition": 39}
